system: human IgG in mouse serum; test: Immunoglobulin G (IgG) mRNA in vivo evaluation using lipid nanoparticle compositions; design: species or system mice; settings: LNP-formulated lipid, 0.3 mg mRNA/kg, tail vein injection, μg IgG/mL serum 24 hours after administration
Quick list: Serum IgG @ 0.3 mg/kg per entry.
Write down the numeric answer in µg/mL and omit the unit.

Observe how each entry below is paired with its result.
MOLECULE	OBSERVED_PROPERTY	UNIT_LABEL	NUMBER
CCCCCCCCCCN(CCCCCCCCCC)C(=O)C(F)CCCCCCN(CCCCCCC(F)C(=O)N(CCCCCCCCCC)CCCCCCCCCC)[C@H]1CC[C@@H](O)CC1 (stereo partly drawn)	Serum IgG @ 0.3 mg/kg	µg/mL	60.49
CCCCCCCCCCN(CCCCCCCCCC)C(=O)CCCCCCCN(CCCCCCCC(=O)N(CCCCCCCCCC)CCCCCCCCCC)[C@@H]1CC[C@@H](O)C1 (racemic) [(rac)-(1RS, 3RS) I-14]	Serum IgG @ 0.3 mg/kg	µg/mL	11.48

With those in mind, consider the next molecule.
What value of Serum IgG @ 0.3 mg/kg has been reported for the following molecule? `CCCCCCCCCCN(CCCCCCCCCC)C(=O)CCCCCCCCCN(CCCCCC(=O)N(CCCCCCCCCC)CCCCCCCCCC)[C@H]1CC[C@@H](O)CC1` 40.66

====

tested on: human IgG in mouse serum; test: Immunoglobulin G (IgG) mRNA in vivo evaluation using lipid nanoparticle compositions; design: species or system mice; conditions: LNP-formulated lipid, 0.3 mg mRNA/kg, tail vein injection, μg IgG/mL serum 24 hours after administration
OBSERVED_PROPERTY: Serum IgG @ 0.3 mg/kg (µg/mL)
Write the answer as a number in µg/mL, unit excluded.

COMPOUND	Serum IgG @ 0.3 mg/kg, µg/mL
CCCCCCCCCCN(CCCCCCCCN(CCCCCCCC(=O)N(CCCCCCCCCC)CCCCCCCCCC)[C@H]1CC[C@@H](O)CC1)C(=O)CCCCCCCCC	55.53

Please look at the following compound next.
Name the reported Serum IgG @ 0.3 mg/kg value associated with the compound `CCCCCCCCCCN(CCCCCCCCCC)C(=O)CCCCCCCN(CCCCCCCC(=O)N(CCCCCCCCCC)CCCCCCCCCC)[C@@H]1CCC[C@H]1O` 25.27

====

Test system: human IgG in mouse serum
Assay: Immunoglobulin G (IgG) mRNA in vivo evaluation using lipid nanoparticle compositions
Parameters: species or system mice
Details: LNP-formulated lipid, 1.0 mg mRNA/kg, tail vein injection, μg IgG/mL serum 24 hours after administration
Procedure: A lipid of structure (I), DSPC, cholesterol and PEG-lipid are solubilized in ethanol at a molar ratio of 50:10:38.5:1.5 or 47.5:10:40.7:1.8. Lipid nanoparticles (LNP) are prepared at a total lipid to mRNA weight ratio of approximately 10:1 to 40:1. […] For immunoglobulin G (IgG) ELISA (Life Diagnostics Human IgG ELISA kit), the serum samples are diluted at 100 to 20,000 folds with 1× diluent solution. […] The absorbance is read at 450 nm (A450) with a microplate reader. […]
OBSERVED_PROPERTY: Serum IgG @ 1.0 mg/kg (µg/mL)
Record the value in µg/mL, omitting the unit from your answer.

Some molecules with known Serum IgG @ 1.0 mg/kg results, for comparison:
MOLECULE	OBSERVED_PROPERTY	NUMBER
CCCCCCCCCCN(CCCCCCCCCC)C(=O)CCCCCCCN(CCCCCCCC(=O)N(CCCCCCCCCC)CCCCCCCCCC)[C@H]1CC[C@@H](O)CC1	Serum IgG @ 1.0 mg/kg	257.42
CCCCCCCCCCN(CCCCCCCCCC)C(=O)CCCCCCCN(CCCCCCCC(=O)N(CCCCCCCCCC)CCCCCCCCCC)[C@H]1CC[C@@](C)(O)CC1	Serum IgG @ 1.0 mg/kg	194.38
CCCCCCCCCCN(CCCCCCCCCC)C(=O)CCCCCCCN(CCCCCCCC(=O)N(CCCCCCCCCC)CCCCCCCCCC)C1CC2(CC(O)C2)C1 (stereo not drawn)	Serum IgG @ 1.0 mg/kg	171.89

# lookup: Serum IgG @ 1.0 mg/kg of `CCCCCCCCCCN(CCCCCCCCCC)C(=O)CCCCCCCN(CCCCCCCC(=O)N(CCCCCCCCCC)CCCCCCCCCC)[C@H]1CCCC[C@H]1O` 88.40

Name the recorded Serum IgG @ 1.0 mg/kg for `CCCCCCCCCCN(CCCCCCCCN(CCCCCCCC(=O)N(CCCCCCCCCC)CCCCCCCCCC)[C@H]1CC[C@@H](O)CC1)C(=O)CCCCCCCCC` . 158.59

Give the measured Serum IgG @ 1.0 mg/kg of CCCCCCCCCCN(CCCCCCCCCC)C(=O)CCCCCCCN(CCCCCCCC(=O)N(CCCCCCCCCC)CCCCCCCCCC)[C@@H]1CC[C@H](O)C1 (racemic) [(rac)-(1RS, 3SR) I-14] . 66.16

====

system: human IgG in mouse serum; assay: Immunoglobulin G (IgG) mRNA in vivo evaluation using lipid nanoparticle compositions; design: species or system mice; conditions: LNP-formulated lipid, 1.0 mg mRNA/kg, tail vein injection, μg IgG/mL serum 24 hours after administration
OBSERVED_PROPERTY: Serum IgG @ 1.0 mg/kg (µg/mL)
// note: answer is a bare numeric in µg/mL

Recorded results for 5 molecules are shown here.
MOLECULE	UNIT_LABEL	Serum IgG @ 1.0 mg/kg
CCCCCCCCCCN(CCCCCCCCCC)C(=O)CCCCCCCN(CCCCCCCC(=O)N(CCCCCCCCCC)CCCCCCCCCC)C1CCCC1O (racemic) [(rac)-(1RS, 2SR) I-48]	µg/mL	161.75
CCCCCCCCCCN(CCCCCCCCCC)C(=O)CCCCCCCN(CCCCCCCC(=O)N(CCCCCCCCCC)CCCCCCCCCC)[C@H]1CCC[C@H]1O	µg/mL	225.79
CCCCCCCCCCN(CCCCCCCCCC)C(=O)CCCCCCCN(CCCCCCCC(=O)N(CCCCCCCCCC)CCCCCCCCCC)[C@H]1CC[C@@H](CO)CC1	µg/mL	273.72
CCCCCCCCCCN(CCCCCCCCCC)C(=O)CCCCCCCN(CCCCCCCC(=O)N(CCCCCCCCCC)CCCCCCCCCC)[C@H]1C[C@@H](CO)C1	µg/mL	57.71
CCCCCCCCCCN(CCCCCCCCCC)C(=O)CCCCCCCN(CCCCCCCC(=O)N(CCCCCCCCCC)CCCCCCCCCC)C1CCC[C@H]1O (mixture of isomers) [(rac)-(1RS, 2RS) I-48]	µg/mL	216.8

Please state recorded Serum IgG @ 1.0 mg/kg (tested on human IgG in mouse serum) of `CCCCCCCCCCN(CCCCCCCCCC)C(=O)CCCCCCCN(CCCCCCCC(=O)N(CCCCCCCCCC)CCCCCCCCCC)[C@H]1CC[C@H](CO)CC1` 37.79

Serum IgG @ 1.0 mg/kg of `CCCCCCCCCCN(CCCCCCCCCC)C(=O)CCCCCCCN(CCCCCCCC(=O)N(CCCCCCCCCC)CCCCCCCCCC)[C@H]1C[C@@H](O)C1` on human IgG in mouse serum? 187.67

Lab note: need Serum IgG @ 1.0 mg/kg for `CCCCCCCCCCN(CCCCCCCCCC)C(=O)CCCCCCCN(CCCCCCCC(=O)N(CCCCCCCCCC)CCCCCCCCCC)[C@H]1CC[C@H](O)CC1` on human IgG in mouse serum, anyone have it? 204.57

Any idea what Serum IgG @ 1.0 mg/kg came out for CCCCCCCCCCN(CCCCCCCCCC)C(=O)C(F)CCCCCCN(CCCCCCC(F)C(=O)N(CCCCCCCCCC)CCCCCCCCCC)[C@H]1CC[C@@H](O)CC1 (stereo partly drawn) on human IgG in mouse serum? 332.8

Form: Entry = `CCCCCCCCCCN(CCCCCCCCCC)C(=O)CCCCCCCN(CCCCCCCC(=O)N(CCCCCCCCCC)CCCCCCCCCC)[C@H]1C[C@H](CO)C1` | System = human IgG in mouse serum | Serum IgG @ 1.0 mg/kg = ____ 19.77

Under human IgG in mouse serum: Serum IgG @ 1.0 mg/kg value of `CCCCCCCCCCN(CCCCCCCCCC)C(=O)CCCCCCCN(CCCCCCCC(=O)N(CCCCCCCCCC)CCCCCCCCCC)[C@H]1C[C@H](O)C[C@H](O)C1` ? 57.07

What value of Serum IgG @ 1.0 mg/kg on human IgG in mouse serum does CCCCCCCCCCN(CCCCCCCCCC)C(=O)CCCCCCCN(CCCCCCCC(=O)N(CCCCCCCCCC)CCCCCCCCCC)CC1CCC(O)C1 (stereo not drawn) have? 155.20

====

test system: human IgG in mouse serum; assay: Immunoglobulin G (IgG) mRNA in vivo evaluation using lipid nanoparticle compositions; design: species or system mice; conditions: LNP-formulated lipid, 0.3 mg mRNA/kg, tail vein injection, μg IgG/mL serum 24 hours after administration
OBSERVED_PROPERTY: Serum IgG @ 0.3 mg/kg (µg/mL)
Your answer should be a plain number; it is taken to be in µg/mL.

Would you please look over these solved cases?
MOLECULAR_STRING	Serum IgG @ 0.3 mg/kg [µg/mL]
CCCCCCCCCCN(CCCCCCCCCC)C(=O)CCCCCCCN(CCCCCCCC(=O)N(CCCCCCCCCC)CCCCCCCCCC)[C@H]1CC[C@H](CO)CC1	5.15
CCCCCCCCCCN(CCCCCCCCCC)C(=O)CCCCCCCN(CCCCCCCC(=O)N(CCCCCCCCCC)CCCCCCCCCC)[C@H]1CC[C@@](C)(O)CC1	39.96

For the next question, use this compound.
Item under review: `CCCCCCCCCCN(CCCCCCCCCC)C(=O)CCCCCCCN(CCCCCCCC(=O)NC(CCCCCCCCC)CCCCCCCCC)[C@H]1CC[C@@H](O)CC1` . Reported Serum IgG @ 0.3 mg/kg? 61.75
